- Test system: Saccharomyces sp.
- assay.details: Inhibition of Saccharomyces sp. alpha-glucosidase
Activity calls are given as the source filed them. The rule behind the calls is not given here.

{"test.smiles": "CC[C@H](CC[C@@H](C)[C@H]1CC[C@H]2[C@@H]3CC=C4C[C@@H](O)CC[C@]4(C)[C@H]3CC[C@]12C)C(C)C", "Activity": "inactive"}
{"test.smiles": "C=C(C)[C@@H]1CC[C@]2(C=O)CC[C@]3(C)[C@H](CC[C@@H]4[C@@]5(C)CC[C@H](O)C(C)(C)[C@@H]5CC[C@]43C)[C@@H]12", "Activity": "inactive"}
{"test.smiles": "C=C(C)[C@@H]1CC[C@]2(C(=O)O)CC[C@]3(C)[C@H](CC[C@@H]4[C@@]5(C)CC[C@H](O)C(C)(C)[C@@H]5CC[C@]43C)[C@@H]12", "Activity": "inactive"}

---

- assay.details: Inhibition of Saccharomyces sp. alpha-glucosidase
property.label: IC50

The examples below pair each entry with its known result.
{"compound": "OC[C@H]1NC[C@H](O)[C@@H](O)[C@@H]1O [DUVOGLUSTAT]", "IC50": "425 µM"}
{"compound": "C=C1[C@H](OC(C)=O)C[C@]2(C)CC[C@]3(C)[C@H](CC[C@@H]4[C@@]5(C)CC[C@H](OC(C)=O)C(C)(C)[C@@H]5CC[C@]43C)[C@H]2[C@H]1C", "IC50": "10 µM"}
{"compound": "C[C@H]1C(=O)CC[C@@H]2[C@]1(C)CC[C@H]1[C@@]2(C)CC[C@@]2(C)[C@@H]3CC(C)(C)CC[C@]3(C)CC[C@]12C [FRIEDELINE]", "IC50": "321 µM"}
{"compound": "COc1cc(C(=O)O)ccc1O [VANILLIC ACID]", "IC50": "69 µM"}

Field: next compound
Request: # input compound: C=C1[C@H](O)C[C@]2(C)CC[C@]3(C)[C@H](CC[C@@H]4[C@@]5(C)CC[C@H](O)C(C)(C)[C@@H]5CC[C@]43C)[C@H]2[C@H]1C ; wanted: its IC50
Result: 51.9 µM
